Tested on: Fibroblast
protocol_summary: Multiplex assay against human fibroblast
Type: toxicity, cell-based
experimental_setup: 24 h, 1 µM, compound concentration 1 uM, replicate 2
Satisfied means recorded Population Healthy Nuclei (%) is 50% or above; Not satisfied means it is below 50%.

>  <compound>
C[C@H](NC(=O)c1c(C(F)F)nn(C)c1Oc1cccc(C(F)(F)F)c1)c1ccc(C(=O)O)cc1

>  <assigned_class>
Satisfied

$$$$
>  <compound>
Cc1ccc(C(C)(O)c2nc3ccccc3s2)c(C)c1 (centres undefined)

>  <assigned_class>
Satisfied

$$$$
>  <compound>
CNC[C@H](O)c1ccc(O)c(O)c1 [EPINEPHRINE]

>  <assigned_class>
Not satisfied

$$$$
>  <compound>
N#Cc1c(N)nc(SCc2csc(-c3ccc(Cl)cc3)n2)c(C#N)c1-c1ccc(OCCO)cc1

>  <assigned_class>
Not satisfied

$$$$
>  <compound>
CCNC1(C(N)=O)CCN(c2ncnc3c2nc(-c2ccccc2Cl)n3-c2ccc(Cl)cc2)CC1

>  <assigned_class>
Not satisfied

$$$$
>  <compound>
CC[C@H]1OC(=O)[C@H](C)[C@@H](O[C@H]2C[C@@](C)(OC)[C@@H](O)[C@H](C)O2)[C@H](C)[C@@H](O[C@@H]2O[C@H](C)C[C@H](N(C)C)[C@H]2O)[C@@]2(C)CC(C)=C(O2)[C@H](C)[C@@H](O)[C@]1(C)O

>  <assigned_class>
Satisfied

$$$$
>  <compound>
CC(C)(C)c1ccc(S(=O)(=O)Nc2ccc(Cl)cc2C(=O)c2cc[n+]([O-])cc2)cc1

>  <assigned_class>
Satisfied

$$$$

====

Test system: Fibroblast
protocol_summary: Multiplex assay against human fibroblast
Assay type: toxicity, cell-based
experimental_setup: 48 h, 1 µM, compound concentration 1 uM, replicate 1
This section presents compounds with their documented Population Apoptotic (%) values.
measurement_label: Population Apoptotic (%)

>  <mol_smiles>
O=C1COc2nccc(-c3ccccc3F)c2CN1Cc1cc(C(F)(F)F)cc(C(F)(F)F)c1

>  <measurement_label>
Population Apoptotic (%)

>  <observed_value>
75%

$$$$
>  <mol_smiles>
CC1(COc2ccc3c(c2)ncn3-c2ccc3cccc(N4CCC(N)CC4)c3n2)COC1

>  <measurement_label>
Population Apoptotic (%)

>  <observed_value>
75%

$$$$
>  <mol_smiles>
C[C@H]1[C@H]2CC[C@H]3[C@@H]4CC=C5C[C@@H](N(C)C)CC[C@]5(C)[C@H]4CC[C@]23CN1C

>  <measurement_label>
Population Apoptotic (%)

>  <observed_value>
50%

$$$$

====

System: U2OS
protocol_summary: Multiplex assay against U2OS
Type: toxicity, cell-based
experimental_setup: human, 48 h, 1 µM, compound concentration 1 uM, replicate 1
This section presents molecules with their documented Population Pyknosed Nuclei (%) values.
measurement_label: Population Pyknosed Nuclei (%)

>  <molecule>
COc1c(C)cc(NC(=O)c2nn(Cc3ccc(F)cc3)c3c2CN(C(=O)c2ccc[nH]2)C[C@]3(C)C(N)=O)cc1C

>  <observed_value>
13

$$$$
>  <molecule>
N[C@@]1(C(=O)O)CO[C@H]2[C@H](C(=O)O)[C@H]21

>  <observed_value>
7

$$$$
>  <molecule>
COc1ccc2c(c1)C(C(=O)N(Cc1ccc(N(C)C)cc1)c1ccc(C(C)C)cc1)CCC2.Cl (stereo not drawn)

>  <observed_value>
13

$$$$
>  <molecule>
COc1cc(NC(=O)CCN2CCC(OC(=O)Nc3ccccc3-c3ccccc3)CC2)c(Cl)cc1CNC[C@H](O)c1ccc(O)c2[nH]c(=O)ccc12

>  <observed_value>
19

$$$$
>  <molecule>
Cc1ccccc1C(=O)Nc1ccc(C(=O)N2CCCC(N(C)C)c3ccccc32)cc1.Cl (stereo not drawn)

>  <observed_value>
13

$$$$
>  <molecule>
CCOc1c2c(c(OCC)c3ncccc13)CN(c1ccc(CS(=O)(=O)NC(=O)Cc3ccccc3OC)cc1C)C2=O

>  <observed_value>
5

$$$$
>  <molecule>
CCCn1c(=O)c2[nH]c(C3CCCC3)nc2n(CCC)c1=O

>  <observed_value>
10

$$$$
>  <molecule>
CC(=O)NCCc1c(Cc2ccccc2)[nH]c2ccccc12

>  <observed_value>
9

$$$$
